Exercise: state measured pIC50 for each of the compounds provided.
# target entity: A1-adenosine receptor
# assay info: Adenosine A1 receptor binding (method of Goodman et al.)
Answers are plain numbers, as −log10 of the molar value.

Consider the following illustrative entries.
                                   compound  numeric_result
0  CCCn1c(=O)c2nc(C(CC)c3ccc(OCC(=O)NCCN)cc3)[nH]c2n(CCC)c1=O (stereo not drawn)            8.36
1  CCCn1c(=O)c2nc(C(C)Cc3ccc(OCC(=O)NCCN)cc3)[nH]c2n(CCC)c1=O (stereo not drawn) [Compound 101345]            7.85
2  CCCn1c(=O)c2nc(C(C)Cc3ccc(OCC(=O)O)cc3)[nH]c2n(CCC)c1=O (stereo not drawn)            6.49
3  CCCn1c(=O)c2nc(C(C)Cc3ccc(OCC(=O)NCCN)cc3)[nH]c2n(CCC)c1=O (single isomer, unassigned; (+)) [Compound 101993]            7.22
4  CCCn1c(=O)c2nc(C(C)Cc3ccc(OCC(=O)NCCN)cc3)[nH]c2n(CCC)c1=O (single isomer, unassigned; (-)) [Compound 100991]            8.00

What the record says about CCCn1c(=O)c2nc(C(CC)c3ccc(OCC(=O)O)cc3)[nH]c2n(CCC)c1=O (stereo not drawn) : pIC50 is 5.93
